# EXPERIMENTAL SYSTEM: T1, ECF33_423
# T1 chain: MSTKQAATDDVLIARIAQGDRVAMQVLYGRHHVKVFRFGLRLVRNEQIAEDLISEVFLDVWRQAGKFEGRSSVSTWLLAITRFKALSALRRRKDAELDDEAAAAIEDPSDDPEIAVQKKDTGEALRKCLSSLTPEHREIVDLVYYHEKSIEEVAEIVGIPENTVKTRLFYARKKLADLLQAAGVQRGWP
Can you tell me fold repression for the items I'm about to list?
Please give the numeric answer without any surrounding text.

Request: Request the reported fold repression associated with AS16_3622 (protein) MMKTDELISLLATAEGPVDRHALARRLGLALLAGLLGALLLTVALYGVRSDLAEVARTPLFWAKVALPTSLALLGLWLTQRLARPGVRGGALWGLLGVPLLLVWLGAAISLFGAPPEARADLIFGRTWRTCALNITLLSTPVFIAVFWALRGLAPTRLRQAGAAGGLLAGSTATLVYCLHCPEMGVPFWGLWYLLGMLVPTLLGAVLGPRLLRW
Response: 1.87

Request: Ok, now AS11_987 (protein) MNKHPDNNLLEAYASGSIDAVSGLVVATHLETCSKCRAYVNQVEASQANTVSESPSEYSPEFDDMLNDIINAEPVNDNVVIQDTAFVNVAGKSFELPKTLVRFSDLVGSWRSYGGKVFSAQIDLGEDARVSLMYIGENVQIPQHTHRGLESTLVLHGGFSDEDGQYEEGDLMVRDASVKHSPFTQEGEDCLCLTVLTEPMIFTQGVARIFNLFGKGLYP
Response: 2.38
